- Assay Notes: modulators of S6 phosphorylation in cells, primary screen, cell-based, A549, cytoblot, luminescence, serum-stimulated (AID 1158);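 further: serum-stimulated A549 lung adenocarcinoma cells; signal is phosphorylated S6 detected by cytoblot immunostaining with HRP secondary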
- Condition Label: A549 phospho-S6 cytoblot, 5 h, higher = more signal
Assay Metric: z-score

# annotated cases, reported z-score shown
smiles_structure=COCCOC(=O)N1C(=O)[C@@]2(c3cc(C#CCCO)ccc31)[C@H](C(=O)N1CCc3cc(OC)c(OC)cc3C1)[C@H]1C(=O)O[C@H](c3ccccc3)[C@H](c3ccccc3)N1[C@@H]2c1ccc(O)cc1 experimental_value=0.113
smiles_structure=[N-]=[N+]=Nc1ccccc1[C@H]1OC(c2ccc(OCCCO)cc2)=N[C@@]1(Cc1ccccc1)C(=O)O experimental_value=-0.259
smiles_structure=O=C1NCC(=O)N2[C@@H]1C[C@@H](C(=O)O)[C@H]2c1cccc(OCCO)c1 experimental_value=0.863
smiles_structure=CCCC#C[Si](O[C@H](CC)c1cn([C@H](CO)Cc2ccccc2)nn1)(C(C)C)C(C)C experimental_value=-0.675

Query: Look at this molecule and give its reported z-score. `CCCC[C@@H]1C[C@H]1[C@@H](NC(=O)c1ccco1)c1ccc(Cl)cc1`
Reply: -0.321

Query: So what does the record say about z-score for `CCOC(=O)[C@H]1C/C=C/C[C@H](C(=O)OCC)C(=O)O[C@H]2[C@@H](OC)O[C@H](CO)[C@@H](OC(=O)Nc3ccc(C#N)cc3)[C@@H]2OC1=O` ?
Reply: 2.47

Query: Name the reported z-score value associated with the molecule `C=C(CCCC)C(=O)CC[C@H](OC(=O)c1cccnc1)c1ccccc1OCCO`
Reply: 1.28
